Test system: Prostate Cancer (PC-3)
Type: cell-based, human
Details: 48 h
pIC50: −log10 of the molar value. Where a SMILES comes first, the peptide text is derived from it. [ ]: non-standard residue; d: D form.
OUTCOME MEASURE: pIC50

CC[C@H](C)[C@H](NC(=O)CNC(=O)[C@H](CO)NC(=O)[C@H](CC(C)C)NC(=O)[C@@H](N)Cc1ccccc1)C(=O)N[C@H](C(=O)NCC(=O)N[C@@H](CCSC)C(=O)N[C@@H](CC(C)C)C(=O)N[C@H](Cc1ccc(O)cc1)C(=O)N[C@@H](CCCCN)C(=O)N[C@@H](CC(C)C)C(=O)N[C@@H](Cc1ccccc1)C(N)=O)C(C)C [[G10y]-SHa (6)] (H-FLSGIVGML[dY]KLF-NH2)	4.71
CC[C@H](C)[C@H](NC(=O)CNC(=O)[C@H](CO)NC(=O)[C@H](CC(C)C)NC(=O)[C@@H](N)Cc1ccccc1)C(=O)N[C@H](C(=O)NCC(=O)N[C@@H](CCSC)C(=O)N[C@@H](CC(C)C)C(=O)N[C@@H](CCCCN)C(=O)N[C@@H](CCCCN)C(=O)N[C@@H](CC(C)C)C(=O)N[C@@H](Cc1ccccc1)C(N)=O)C(C)C [[G10K]-SHa (4)] (H-FLSGIVGMLKKLF-NH2)	4.93
CC[C@H](C)[C@H](NC(=O)CNC(=O)[C@H](CO)NC(=O)[C@H](CC(C)C)NC(=O)[C@@H](N)Cc1ccccc1)C(=O)N[C@H](C(=O)NCC(=O)N[C@@H](CCSC)C(=O)N[C@@H](CC(C)C)C(=O)N[C@H](Cc1ccccc1)C(=O)N[C@@H](CCCCN)C(=O)N[C@@H](CC(C)C)C(=O)N[C@@H](Cc1ccccc1)C(N)=O)C(C)C [[G10f]-SHa (3)] (H-FLSGIVGML[dF]KLF-NH2)	5.31
